# experiment: Phase 1 double-masked multiple-dose plasma PK study of roflumilast topical ophthalmic suspension (0.3%)
# Format: in vivo, human
# test-conditions: human, plasma, other: topical ophthalmic eye drops, 0.3 % suspension, single drop in each eye BID, plasma, Day 1, mean, to 12 hr post-first dose; read-out: AUC0-t
recorded-endpoint: AUC0-t (ng·h/mL)
Write down the numeric answer in ng·h/mL and omit the unit.

Asked: Give the reported AUC0-t for this compound. O=C(Nc1c(Cl)cncc1Cl)c1ccc(OC(F)F)c(OCC2CC2)c1
Given back: 3.6

* * *

# experiment: Phase 1 double-masked multiple-dose plasma PK study of roflumilast topical ophthalmic suspension (0.3%)
# Assay type: in vivo, human
# test-conditions: human, plasma, other: topical ophthalmic eye drops, 0.3 % suspension, single drop in each eye BID, Group 1, Day 1; read-out: AUC0-tau Geometric Mean
recorded-endpoint: AUC (ng·h/mL)
Write down the numeric answer in ng·h/mL and omit the unit.

Asked: Give the reported AUC for this compound. O=C(Nc1c(Cl)cncc1Cl)c1ccc(OC(F)F)c(OCC2CC2)c1 [Roflumilast]
Given back: 2.91

Hello, the source for this data is patent US20250339419A1, in case you need it.
